Could you please report measured inhibition for the items listed next?
TARGET_OR_SYSTEM: UniProt P07943
MEASUREMENT_NOTES: Inhibition of rat kidney NADPH-dependent aldose reductase assessed as DL-glyceraldehyde conversion to glycerol at 1 uM preincubated for 20 mins followed by NADPH addition measured after 5 mins by UV-Visible spectrophotometric analysis relative to control

Here are 4 compounds together with their reported answers.
CHEMICAL_STRING	inhibition
N#CC(=C\c1ccc(F)cc1)/C=C1\SC(=S)N(c2ccc(C(=O)O)cc2)C1=O	< 50%
N#CC(=C\c1ccc(C(F)(F)F)cc1)/C=C1\SC(=S)N(CC(=O)O)C1=O	< 50%
CCc1ccc(/C=C(C#N)/C=C2\SC(=S)N(c3ccc(C(=O)O)cc3)C2=O)cc1	< 50%
N#CC(=C\c1cccs1)/C=C1\SC(=S)NC1=O	> 50%

Turning now to a further record.
Query :: Requested read-out inhibition, target or system UniProt P07943, entry CC(C)c1ccc(/C=C(C#N)/C=C2\SC(=S)N(c3ccc(CC(=O)O)cc3)C2=O)cc1
Result :: < 50%

* * *

Field: inhibition. Provide a value for each of the compounds that follow.
TARGET_OR_SYSTEM: UniProt P07943
MEASUREMENT_NOTES: Inhibition of rat kidney NADPH-dependent aldose reductase assessed as DL-glyceraldehyde conversion to glycerol at 1 uM preincubated for 20 mins followed by NADPH addition measured after 5 mins by UV-Visible spectrophotometric analysis relative to control

CHEMICAL_STRING	inhibition
Cc1ccc(/C=C(C#N)/C=C2\SC(=S)N(c3ccc(CC(=O)O)cc3)C2=O)cc1	< 50%
Cc1ccc(/C=C(C#N)/C=C2\SC(=S)NC2=O)cc1	> 50%
N#CC(=C\c1ccco1)/C=C1\SC(=S)N(c2ccc(C(=O)O)cc2)C1=O	< 50%
N#CC(=C\c1ccc(Cl)cc1)/C=C1\SC(=S)N(CC(=O)O)C1=O	< 50%
N#CC(=C\c1ccccc1)/C=C1\SC(=S)N(c2ccc(CC(=O)O)cc2)C1=O	< 50%

For each of the items listed, what is its inhibition?
1. N#CC(=C\c1ccc(Br)cc1)/C=C1\SC(=S)N(CC(=O)O)C1=O
2. N#CC(=C\c1ccco1)/C=C1\SC(=S)N(CC(=O)O)C1=O
3. CCc1ccc(/C=C(C#N)/C=C2\SC(=S)N(c3ccc(CC(=O)O)cc3)C2=O)cc1

Result ::
1. < 50%
2. > 50%
3. < 50%

Give inhibition for all compounds that follow.
1. Cc1ccc(/C=C(C#N)/C=C2\SC(=S)N(c3ccc(C(=O)O)cc3)C2=O)cc1
2. Cc1ccc(/C=C(C#N)/C=C2\SC(=S)N(CC(=O)O)C2=O)cc1

Result ::
< 50%
< 50%

For each of the items listed, what is its inhibition?
1. COc1ccc(/C=C(C#N)/C=C2\SC(=S)N(c3ccc(C(=O)O)cc3)C2=O)cc1
2. COc1ccc(/C=C(C#N)/C=C2\SC(=S)N(CC(=O)O)C2=O)cc1
3. N#CC(=C\c1cccs1)/C=C1\SC(=S)N(c2ccc(C(=O)O)cc2)C1=O
4. N#CC(=C\c1ccccc1)/C=C1\SC(=S)NC1=O
5. N#CC(=C\c1cccc2ccccc12)/C=C1\SC(=S)N(c2ccc(C(=O)O)cc2)C1=O
6. N#CC(=C\c1ccccc1)/C=C1\SC(=S)N(CC(=O)O)C1=O
7. N#CC(=C\c1ccccc1)/C=C1\SC(=S)N(c2ccc(C(=O)O)cc2)C1=O
8. N#CC(=C\c1ccc(F)cc1)/C=C1\SC(=S)N(CC(=O)O)C1=O

Result ::
< 50%
< 50%
< 50%
< 50%
< 50%
> 50%
> 50%
< 50%

Provide inhibition for all items below, preserving their order.
1. CC(C)c1ccc(/C=C(C#N)/C=C2\SC(=S)N(c3ccc(C(=O)O)cc3)C2=O)cc1
2. N#CC(=C\c1cccc2ccccc12)/C=C1\SC(=S)NC1=O

Result ::
1: < 50%; 2: < 50%

Query :: Could you tell me which inhibition is on file for N#CC(=C\c1ccc(F)cc1)/C=C1\SC(=S)NC1=O ?
Result :: < 50%
